- subject.of.test: KRAS-G12D (Homo sapiens, UniProt P01116, G12D)
- Construct: endogenous in cells; host or cells: A-427 (ATCC), AGS, AsPc-1, Panc 04.03
- Sequence (P01116 1-188 isoform P01116-2 G12D): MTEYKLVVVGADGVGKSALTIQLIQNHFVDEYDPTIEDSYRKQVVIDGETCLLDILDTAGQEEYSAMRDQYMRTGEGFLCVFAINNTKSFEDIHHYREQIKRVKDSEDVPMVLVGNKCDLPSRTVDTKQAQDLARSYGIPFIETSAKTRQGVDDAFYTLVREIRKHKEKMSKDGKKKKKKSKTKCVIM
- experimental.protocol: KRAS-G12D degradation assay (Western Blot), A-427 cells
- Assay type: cell-based
- test.settings: A-427; A427 cells, 24 h; class symbols
The entries below come with measured Dmax values attached.
reported.metric: Dmax

INSERT INTO results (smiles_entry, reported_metric, result) VALUES
  ('C#Cc1c(F)ccc2cc(O)cc(-c3ncc4c(N5CC6CCC(C5)N6)nc(OCC5(CN6CCN(CCC7CCC8(CC7)CCN(C(=O)c7ccc(Cl)c(N9CCC(=O)NC9=O)c7)CC8)CC6)CC5)nc4c3F)c12', 'Dmax', '80 to 100%'),
  ('C#Cc1c(F)ccc2cc(O)cc(-c3ncc4c(N5CC6CCC(C5)N6)nc(OCC5(CN6CCN(CC7CCC8(CC7)CCN(C(=O)c7ccc(OC)c(N9CCC(=O)NC9=O)c7)CC8)CC6)CC5)nc4c3F)c12', 'Dmax', '80 to 100%'),
  ('C#Cc1c(F)ccc2cc(O)cc(-c3ncc4c(N5CC6CCC(C5)N6)nc(OCC5(CN6CCN(CCCC7CCC8(CC7)CCN(C(=O)c7ccc(Cl)c(N9CCC(=O)NC9=O)c7)CC8)CC6)CC5)nc4c3F)c12', 'Dmax', '80 to 100%'),
  ('C#Cc1c(F)ccc2cc(O)cc(-c3ncc4c(N5CC6CCC(C5)N6)nc(OCC5(CN6CCN(CCC7CC8(CCN(C(=O)c9ccc(OC)c(N%10CCC(=O)NC%10=O)c9)CC8)C7)CC6)CC5)nc4c3F)c12', 'Dmax', '50 to 80%'),
  ('C#Cc1c(F)ccc2cc(O)cc(-c3ncc4c(N5CC6CCC(C5)N6)nc(NCC5(CN6CCN(CC7CCC8(CC7)CCN(C(=O)c7ccc(C)c(N9CCC(=O)NC9=O)c7)CC8)CC6)CC5)nc4c3F)c12', 'Dmax', '80 to 100%');
